Molecular target: ATP-dependent translocase ABCB1 (Homo sapiens, UniProt P08183)
Sequence (P08183 whole entry): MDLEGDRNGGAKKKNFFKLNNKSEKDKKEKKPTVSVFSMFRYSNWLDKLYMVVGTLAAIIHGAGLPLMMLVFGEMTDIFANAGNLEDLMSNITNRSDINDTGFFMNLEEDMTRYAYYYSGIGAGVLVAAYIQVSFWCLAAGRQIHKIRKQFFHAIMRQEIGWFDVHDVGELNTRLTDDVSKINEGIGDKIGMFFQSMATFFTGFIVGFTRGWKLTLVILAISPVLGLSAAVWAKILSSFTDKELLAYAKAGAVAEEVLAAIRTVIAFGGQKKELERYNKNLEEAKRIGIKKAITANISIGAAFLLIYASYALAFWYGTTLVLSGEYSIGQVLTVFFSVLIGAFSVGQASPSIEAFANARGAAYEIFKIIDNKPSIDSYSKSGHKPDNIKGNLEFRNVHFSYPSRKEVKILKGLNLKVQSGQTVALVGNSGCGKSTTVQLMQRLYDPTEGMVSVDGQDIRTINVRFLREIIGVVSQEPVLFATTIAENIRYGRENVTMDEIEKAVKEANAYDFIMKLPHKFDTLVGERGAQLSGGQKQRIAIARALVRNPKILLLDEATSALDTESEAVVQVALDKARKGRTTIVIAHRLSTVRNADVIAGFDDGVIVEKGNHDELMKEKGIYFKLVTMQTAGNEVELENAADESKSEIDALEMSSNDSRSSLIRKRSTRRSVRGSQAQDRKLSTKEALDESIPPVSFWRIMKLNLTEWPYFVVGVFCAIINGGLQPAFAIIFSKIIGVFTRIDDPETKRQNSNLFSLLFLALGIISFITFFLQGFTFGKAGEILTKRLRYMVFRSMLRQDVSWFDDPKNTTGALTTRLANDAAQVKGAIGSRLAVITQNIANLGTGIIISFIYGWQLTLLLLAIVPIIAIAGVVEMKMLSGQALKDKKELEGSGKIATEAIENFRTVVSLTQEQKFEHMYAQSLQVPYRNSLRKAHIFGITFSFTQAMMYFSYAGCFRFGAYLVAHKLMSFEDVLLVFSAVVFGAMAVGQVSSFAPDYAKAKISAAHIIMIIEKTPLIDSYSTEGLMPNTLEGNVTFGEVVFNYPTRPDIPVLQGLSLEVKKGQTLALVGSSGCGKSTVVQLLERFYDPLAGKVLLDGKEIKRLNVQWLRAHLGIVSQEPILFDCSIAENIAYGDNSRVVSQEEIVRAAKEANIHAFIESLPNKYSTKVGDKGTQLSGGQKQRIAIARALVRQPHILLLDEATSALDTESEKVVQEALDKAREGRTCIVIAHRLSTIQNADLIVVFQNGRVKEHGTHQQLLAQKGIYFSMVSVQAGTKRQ
Experiment: TP_TRANSPORTER: cell accumulation of calcein in L-MDR1 cells
Assay type: functional, cell-based
Details: pig, l-mdr1
measured-quantity: Activity

// solved cases for Activity follow
- compound: "CNCCCC1(c2ccc(F)cc2)OCc2cc(C#N)ccc21 (stereo not given)"
  readout-value: "inhibitor [+]"
- compound: "COc1cc(OC[C@@H]2CNCC[C@H]2c2ccc(F)cc2)ccc1O"
  readout-value: "inhibitor [+]"
- compound: "COCCCC/C(=N\\OCCN)c1ccc(C(F)(F)F)cc1"
  readout-value: "inhibitor [+]"
- compound: "COc1ccc(C(CN(C)C)C2(O)CCCCC2)cc1 (stereo not given)"
  readout-value: "inhibitor [+]"
- compound: "CNCC(c1ccc(OC)cc1)C1(O)CCCCC1 (stereo not given)"
  readout-value: "inhibitor [+]"

Query block: Which Activity value is on record for CN(C)CCCC1(c2ccc(F)cc2)OCc2cc(C#N)ccc21 (stereo not given) ?
Result block: inhibitor [+]

Query block: Next compound up: `C/C=C/C[C@@H](C)C(=O)[C@H]1C(=O)N[C@@H](C(C)C)C(=O)N(C)CC(=O)N(C)[C@@H](CC(C)C)C(=O)N[C@@H](C(C)C)C(=O)N(C)[C@@H](CC(C)C)C(=O)N[C@@H](C)C(=O)N[C@H](C)C(=O)N(C)[C@@H](CC(C)C)C(=O)N(C)[C@@H](CC(C)C)C(=O)N(C)[C@@H](C(C)C)C(=O)N1C`
Result block: inhibitor [+]

Query block: Another compound to look at: NCCC(Oc1ccc(C(F)(F)F)cc1)c1ccccc1 (stereo not given)
Result block: inhibitor [+]

Query block: Input `N[C@H]1CC[C@@H](c2ccc(Cl)c(Cl)c2)c2ccccc21`
Result block: inhibitor [+]

---

Item-by-item account of IC50
Target: ATP-dependent translocase ABCB1 (Homo sapiens)
Experiment: TP_TRANSPORTER: cell accumulation of calcein in L-MDR1 cells
Quick reminder: number only, in µM, skip the unit.

Query block: GET /values?readout=IC50&item= `Fc1ccc([C@@H]2CCNC[C@H]2COc2ccc3c(c2)OCO3)cc1`
Result block: 29.8

Query block: Same for `CN[C@H]1CC[C@@H](c2ccc(Cl)c(Cl)c2)c2ccccc21`
Result block: 31.8
